assay.info: reduction of polyQ htt aggregates in cells – imaging, exon1htt(103Q)mCFP cells, high-content imaging, primary screen (AID 483);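 note: compound exposure lasted 3 days before fixation; percent of the per-plate median nuclei count of sample wells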
condition.details: exon1htt(103Q)mCFP cell line, aggregate imaging, at 2 µM; measured here: cell count, toxicity
measurement.type: nuclei count (%)
The reply should be a number in %, with the unit left off.

Guide cases for nuclei count, answers given:
# compound, measurement.type, assay.value
data = [
    ("O=C1CC(c2ccco2)=Nc2ccccc2N1", "nuclei count", 78.3),
    ("O=C1CCc2nc3sc4c(c3c(=O)n2N1)CCCC4", "nuclei count", 104),
    ("COc1cccc(-c2cc(C(=O)Nc3cc(OC)c(OC)c(OC)c3)no2)c1", "nuclei count", 55.1),
    ("CC(O)CN(Cc1cccc(Cl)c1)CC(C)O (centres undefined)", "nuclei count", 100),
    ("CN(C)c1ccc(CNC2CC(C)(C)NC(C)(C)C2)cc1", "nuclei count", 106),
]

Given item `COCCn1c(SCC(=O)Nc2nnc(C)s2)nnc1-c1c[nH]c2ccccc12` , the value recorded as its nuclei count is 114

Given item CC(c1ccccc1)N1C(=O)c2ccc(C(=O)NCc3ccco3)cc2C1=O (centres undefined) , the value recorded as its nuclei count is 107
